Data provenance is patent US20260139048A1.

Molecular target: T1, His-tagged human TIGIT (human, UniProt Q495A1 22-141)
T1 construct: SPR analyte; also called human TIGIT protein; not shown: His tag
T1 sequence: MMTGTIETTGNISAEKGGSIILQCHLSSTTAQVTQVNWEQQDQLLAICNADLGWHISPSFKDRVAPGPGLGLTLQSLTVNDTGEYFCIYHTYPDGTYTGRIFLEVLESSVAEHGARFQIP
Experiment: SPR (Biacore T200), antibody captured, His-tagged TIGIT analyte
readout-label: koff
Number plus unit, in that order.

Exercise: // lookup koff for TIGIT-18 chimeric antibody (antibody, human IgG1, kappa, V domains shown, Full-length chimeric IgG1 kappa) VH: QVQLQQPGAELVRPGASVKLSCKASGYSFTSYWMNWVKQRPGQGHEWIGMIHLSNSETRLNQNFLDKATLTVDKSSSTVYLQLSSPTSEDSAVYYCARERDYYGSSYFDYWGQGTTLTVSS VL: DIVMTQSPASLVVSLGQRATISCRTSQSVSTSSYSYMHWYQQKPGQPPKLLIKNASNLESGVPARFSASGSGTDFTLNIHPVEEEDAATYYCQHSWEIPRTFGGGTKLEIKR
Key: 9.5e-05 s⁻¹

Exercise: // lookup koff for TIGIT-6 chimeric antibody (antibody, human IgG1, kappa, V domains shown, also called 6VH + 6VL) VH: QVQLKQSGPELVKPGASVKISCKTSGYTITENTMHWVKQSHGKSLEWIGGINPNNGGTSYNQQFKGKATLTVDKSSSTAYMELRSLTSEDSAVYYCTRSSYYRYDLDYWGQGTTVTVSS VL: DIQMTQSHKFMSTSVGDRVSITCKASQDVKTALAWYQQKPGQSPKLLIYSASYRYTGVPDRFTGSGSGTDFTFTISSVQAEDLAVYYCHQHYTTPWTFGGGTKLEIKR
Key: 0.00013 s⁻¹
